# Target: T1, human GIP receptor (human, UniProt P48546 22-466)
# T1 sequence (looked up): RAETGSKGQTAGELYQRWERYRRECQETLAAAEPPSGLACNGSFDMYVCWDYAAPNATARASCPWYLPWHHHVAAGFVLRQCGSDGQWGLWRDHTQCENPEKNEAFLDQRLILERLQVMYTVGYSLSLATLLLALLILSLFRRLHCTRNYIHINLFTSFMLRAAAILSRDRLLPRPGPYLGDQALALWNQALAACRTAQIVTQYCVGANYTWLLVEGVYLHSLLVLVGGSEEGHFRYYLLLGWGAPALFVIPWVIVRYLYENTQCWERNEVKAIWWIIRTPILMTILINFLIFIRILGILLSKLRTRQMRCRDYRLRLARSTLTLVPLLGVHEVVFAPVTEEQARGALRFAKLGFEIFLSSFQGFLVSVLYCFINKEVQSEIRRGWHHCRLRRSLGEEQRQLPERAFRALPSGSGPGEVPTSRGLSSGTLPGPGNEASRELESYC
# Assay details: cell-based or functional assay
*1 amine or outer side, *2 acyl side, *3 side chain or, on linkers, in order; H or OH if unused. Where no end group is shown, it is not given here. Side-chain parts run from the residue outwards. [ ]: non-standard residue; d: D form. The star is where a group is joined. Decanoyl(10-(4-HOOC-PhO)) = O=C(O)c1ccc(OCCCCCCCCCC(=O)*)cc1; αMePhe(2-F) = C[C@](N)(Cc1ccccc1F)C(=O)O; γGlu = O=C(O)[C@H](CCC(=O)[*:2])N[*:1]; αMeY = C[C@](N)(Cc1ccc(O)cc1)C(=O)O; αMeL = CC(C)C[C@](C)(N)C(=O)O; Orn = NCCC[C@H](N)C(=O)O; AEEA = NCCOCCOCC(=O)O; Aib = CC(C)(N)C(=O)O
Measure name: cAMP Emax (1.0% HSA) (%)

{"columns": ["Binder", "Measure name", "Endpoint result"],
 "data": [
  ["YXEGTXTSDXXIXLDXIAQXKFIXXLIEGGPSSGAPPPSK (Y-Aib-EGT-αMeF(2F)-TSD-4Pal-Aib-I-αMeL-LD-Orn-IAQ-Aib-K((2-[2-(2-Amino-ethoxy)-ethoxy]-acetyl)-(γ-Glu)-CO-(CH2)12-CO2H)FI-(D-Glu)-αMeY-LIEGGPSSGAPPPSK((2-[2-(2-Amino-ethoxy)-ethoxy]-acetyl)-(γ-Glu)-CO-(CH2)12-CO2H)-NH2) [Example 341]", "cAMP Emax (1.0% HSA)", 83.6],
  ["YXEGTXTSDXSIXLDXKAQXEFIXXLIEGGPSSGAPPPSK (Y-Aib-EGT-αMeF(2F)-TSD-OMeY-SI-αMeL-LD-Orn-K((2-[2-(2-Amino-ethoxy)-ethoxy]-acetyl)2-(γ-Glu)-CO-(CH2)12-CO2H)AQ-Aib-EFI-(D-Glu)-αMeY-LIEGGPSSGAPPPSK((2-[2-(2-Amino-ethoxy)-ethoxy]-acetyl)2-(γ-Glu)-CO-(CH2)12-CO2H)-NH2) [Example 261]", "cAMP Emax (1.0% HSA)", 75.7],
  ["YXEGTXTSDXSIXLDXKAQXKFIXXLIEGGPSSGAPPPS (Y-Aib-EGT-αMeF(2F)-TSD-hTyr-SI-αMeL-LD-Orn-K((2-[2-(2-Amino-ethoxy)-ethoxy]-acetyl)2-(y-Glu)-(10-(4-carboxyphenoxy)decanoyl))AQ-Aib-K((2-[2-(2-Amino-ethoxy)-ethoxy]-acetyl)2-(γ-Glu)-(10-(4-carboxyphenoxy)decanoyl))FI-(D-Glu)-αMeY-LIEGGPSSGAPPPS-NH2) [Example 320]", "cAMP Emax (1.0% HSA)", 84.1],
  ["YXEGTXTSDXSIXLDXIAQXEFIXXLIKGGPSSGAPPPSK (Y-Aib-EGT-αMeF(2F)-TSD-4Pal-SI-αMeL-LD-Orn-IAQ-Aib-EFI-(D-Glu)-αMeY-LIK((2-[2-(2-Amino-ethoxy)-ethoxy]-acetyl)3-(γ-Glu)-CO-(CH2)12-CO2H)GGPSSGAPPPSK((2-[2-(2-Amino-ethoxy)-ethoxy]-acetyl)3-(γ-Glu)-CO-(CH2)12-CO2H)-NH2) [Example 229]", "cAMP Emax (1.0% HSA)", 80.5],
  ["Y[Aib]EGT[αMePhe(2-F)]TSDV[Aib]I[αMeL]LD[Orn]IAQ[Aib]K([AEEA-AEEA-γGlu-Decanoyl(10-(4-HOOC-PhO))])FI[dE][αMeY]LIK([AEEA-AEEA-γGlu-Decanoyl(10-(4-HOOC-PhO))])GGPSSGAPPPS-NH2 [Example 330]", "cAMP Emax (1.0% HSA)", 103],
  ["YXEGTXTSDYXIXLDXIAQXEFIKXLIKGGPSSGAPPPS (Y-Aib-EGT-αMeF(2F)-TSDY-αMeS-I-αMeL-LD-Orn-IAQ-Aib-EFIK((2-[2-(2-Amino-ethoxy)-ethoxy]-acetyl)2-(γ-Glu)-(10-(4-carboxyphenoxy)decanoyl))-αMeY-LIK((2-[2-(2-Amino-ethoxy)-ethoxy]-acetyl)2-(γ-Glu)-(10-(4-carboxyphenoxy)decanoyl))GGPSSGAPPPS-NH2) [Example 307]", "cAMP Emax (1.0% HSA)", 81.8],
  ["Y[Aib]EGT[αMePhe(2-F)]TSDV[Aib]I[αMeL]LD[Orn]IAQ[Aib]EFIK([AEEA-AEEA-AEEA-γGlu-Decanoyl(10-(4-HOOC-PhO))])[αMeY]LIK([AEEA-AEEA-AEEA-γGlu-Decanoyl(10-(4-HOOC-PhO))])GGPSSGAPPPS-NH2 [Example 347]", "cAMP Emax (1.0% HSA)", 84.6],
  ["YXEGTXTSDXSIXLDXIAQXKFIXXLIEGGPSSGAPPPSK (Y-Aib-EGT-αMeF(2F)-TSD-2Nal-SI-αMeL-LD-Orn-IAQ-Aib-K((2-[2-(2-Amino-ethoxy)-ethoxy]-acetyl)2-(γ-Glu)-CO-(CH2)12-CO2H)FI-(D-Glu)-αMeY-LIEGGPSSGAPPPSK((2-[2-(2-Amino-ethoxy)-ethoxyl-acetyl)2-(γ-Glu)-CO-(CH2)12-CO2H)-NH2) [Example 254]", "cAMP Emax (1.0% HSA)", 68.5],
  ["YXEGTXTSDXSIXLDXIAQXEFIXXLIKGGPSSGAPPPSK (Y-Aib-EGT-αMeF(2F)-TSD-4Pal-SI-αMeL-LD-Orn-IAQ-Aib-EFI-(D-Glu)-αMeY-LIK((2-[2-(2-Amino-ethoxy)-ethoxy]-acetyl)2-CO-(CH2)12-CO2H)GGPSSGAPPPSK((2-[2-(2-Amino-ethoxy)-ethoxy]-acetyl)2-CO-(CH2)12-CO2H)-NH2) [Example 223]", "cAMP Emax (1.0% HSA)", 79.2],
  ["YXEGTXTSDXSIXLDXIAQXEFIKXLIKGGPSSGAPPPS (Y-Aib-EGT-αMeF(2F)-TSD-hTyr-SI-αMeL-LD-Orn-IAQ-Aib-EFIK((2-[2-(2-Amino-ethoxy)-ethoxy]-acetyl)2-(γ-Glu)-(10-(4-carboxyphenoxy)decanoyl))-αMeY-LIK((2-[2-(2-Amino-ethoxy)-ethoxy]-acetyl)2-(γ-Glu)-(10-(4-carboxyphenoxy)decanoyl))GGPSSGAPPPS-NH2) [Example 310]", "cAMP Emax (1.0% HSA)", 83.9]
]}

Source: patent US20230265151A1
